# Assayed system: UniProtKB P28072
# Assay method text: h20S β1 subunit inhibition assay
# Condition notes: 60 min enzyme-inhibitor pre-incubation; mean ± SD, n=3

Structure smiles string: CC(C)C[C@H](NC(=O)[C@H](CC(C)(C)C)NC(=O)[C@H](CCCCNC(=N)N)NC(=O)c1cnccn1)B(O)O
IC50, nM: 1900

* * *

# Assayed system: h20S (β5) (Homo sapiens, UniProt P28074)
# Assay method text: h20S β5 subunit inhibition assay
# Condition notes: 60 min enzyme-inhibitor pre-incubation; mean ± SD, n=3
pIC50: −log10 of the molar value.

Structure smiles string: CC(C)C[C@H](NC(=O)[C@H](CC(C)(C)C)NC(=O)[C@H](CCCCNC(=N)N)NC(=O)c1cnccn1)B(O)O
pIC50: 6.54

Taken from paper PMC6858493.
